Test: High-throughput drug toxicity screening in the BPDCN cell line Cal-1 (AID 1224825);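 also: cells exposed to compounds for 48 h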
Settings: Cal-1 BPDCN cell viability, qHTS; at 45.8 µM (top of the series) unless noted
With a cut-off of 4%, any viability (% of control) strictly below it is called y; any viability (% of control) meeting it or above is called n.

Molecule: COc1cccc2nc(-c3cccs3)nc(NN3C(=O)C=C(C)C3=O)c12
Class Label: y
//
Molecule: COc1ccc(OC)c(-c2nnc3ccc(-c4ccc(OC)c(O[C@@H]5CCOC5)c4)nn23)c1
Class Label: y
//
Molecule: C=CC(=O)Nc1cccc(Oc2nc(Nc3ccc(N4CCN(C)CC4)cc3)ncc2Cl)c1
Class Label: y
//
Molecule: CCCCOc1c(C(=O)c2c(F)cc(C)cc2F)cnc2n[nH]cc12
Class Label: n
//
Molecule: COc1cc(OC2CCN(C)CC2)ccc1Nc1ncc2c(n1)n(C1CCCC1)c(=O)n2C
Class Label: y
//
Molecule: CNC(=O)c1cc(Oc2ccc(NC(=O)Nc3cc(C(C)(C)C)nn3-c3ccc4ncccc4c3)c(F)c2)ccn1
Class Label: n
//
Molecule: CC1COC2(CCN(c3nc(=O)c4cc(C(F)(F)F)cc([N+](=O)[O-])c4s3)CC2)O1 (configuration not stated)
Class Label: n
//
Molecule: N#Cc1c(O)c2c(-c3ccc(-c4ccccc4O)cc3)csc2[nH]c1=O
Class Label: n
//
Molecule: Cc1[nH]nc2ccc(-c3cncc(OC[C@@H](N)Cc4ccccc4)c3)cc12
Class Label: y
//
Molecule: CC(C)[C@H](C(=O)Nc1ccc(C(=O)NO)cc1)c1ccccc1
Class Label: n
//
Molecule: Cc1cccc(C=NNc2cc(N3CCOCC3)nc(OCCc3ccccn3)n2)c1
Class Label: n
//
Molecule: COc1cc(C(=O)N2CCC(N3CCN(C)CC3)CC2)ccc1Nc1ncc2c(n1)N(C)c1ccccc1C(=O)N2C
Class Label: y
//
Molecule: Nc1ncnc2c1c(-c1cnc3[nH]ccc3c1)nn2C1CCCC1
Class Label: y
//
Molecule: Cc1c(CN2CCN(S(C)(=O)=O)CC2)sc2c(N3CCOCC3)nc(-c3cnc(N)nc3)nc12
Class Label: n
//
Molecule: COc1cc2c(NC3CCN(C(C)C)CC3)nc(C3CCCCC3)nc2cc1OCCCN1CCCC1
Class Label: n
//
Molecule: CC(C)(C)c1cc(NC(=O)Nc2ccc(-c3cn4c(n3)sc3cc(OCCN5CCOCC5)ccc34)cc2)no1
Class Label: n
//
Molecule: CC(C)c1cnn2c(NCc3ccccc3)cc(N[C@@H](CO)[C@H](O)CO)nc12
Class Label: y
//
Molecule: Cn1c2ccccc2c2c3c(c4c5ccccc5n(CCC#N)c4c21)CNC3=O
Class Label: n
//
Molecule: COc1cc(-c2nn(C3CCC(N4CCN(C(C)=O)CC4)CC3)c3ncnc(N)c23)ccc1NC(=O)c1cc2ccccc2n1C (configuration not stated)
Class Label: n
//
Molecule: CN1CC[C@@H](c2c(O)cc(O)c3c(=O)cc(-c4ccccc4Cl)oc23)[C@@H](O)C1
Class Label: n
//
Molecule: CC(C)(C)c1cc(C(C)(C)C)c(NC(=O)c2c[nH]c3ccccc3c2=O)cc1O
Class Label: n
//
Molecule: CNC(=O)c1ccc(N2C(=S)N(c3cnc(C#N)c(C(F)(F)F)c3)C(=O)C23CCC3)cc1F
Class Label: y
//
Molecule: CCCCCCCCCC(=O)N[C@@H](Cc1c[nH]c2ccccc12)C(=O)N[C@H](CC(N)=O)C(=O)N[C@@H](CC(=O)O)C(=O)N[C@@H]1C(=O)NCC(=O)N[C@@H](CCCN)C(=O)N[C@@H](CC(=O)O)C(=O)N[C@H](C)C(=O)N[C@@H](CC(=O)O)C(=O)NCC(=O)N[C@H](CO)C(=O)N[C@@H]([C@@H](C)CC(=O)O)C(=O)N[C@@H](CC(=O)c2ccccc2N)C(=O)O[C@@H]1C
Class Label: n
//
Molecule: Cn1cncc1[C@@](N)(c1ccc(Cl)cc1)c1ccc2c(c1)c(-c1cccc(Cl)c1)cc(=O)n2C
Class Label: y
//
Molecule: Cc1cnc(Nc2ccc(F)cc2Cl)nc1-c1c[nH]c(C(=O)N[C@H](CO)c2cccc(Cl)c2)c1
Class Label: y
//
Molecule: Cc1c(Cn2c(C)nc3c(C(=O)O)cc(N4CCOCC4)cc32)cccc1C(F)(F)F
Class Label: n
//
Molecule: COc1cc(C(C)C)c2c(c1)S(=O)(=O)N(COc1cc(=O)n3cccc(OCCN4CCCCC4)c3n1)C2=O
Class Label: n
//
Molecule: CCCCc1nc2cc(C=CC(=O)NO)ccc2n1CCN(CC)CC
Class Label: n
//
Molecule: CC(C)Nc1cc(C(F)(F)F)cc2nc(NC(=O)c3cccnc3)nn12
Class Label: n
//
Molecule: CC(C)C[C@H](NC(=O)CNC(=O)c1cc(Cl)ccc1Cl)B(O)O
Class Label: n
//
Molecule: COC(=O)c1ccc2c(C(=Nc3ccc(N(C)C(=O)CN4CCN(C)CC4)cc3)c3ccccc3)c(O)[nH]c2c1
Class Label: n
//
Molecule: c1cc(-c2cnn3cc(-c4ccc(OCCN5CCCCC5)cc4)cnc23)ccn1
Class Label: y
//
Molecule: Cn1c2cc(S(C)=O)sc2c2cnn(Cc3cccc(N)c3)c(=O)c21 (configuration not stated)
Class Label: n
//
Molecule: CS(=O)(=O)N1CCN(Cc2cc3nc(-c4cccc5[nH]ncc45)nc(N4CCOCC4)c3s2)CC1
Class Label: n
//
Molecule: COc1ccc(C=Cc2cc(OC)c(OC)c(OC)c2)cc1O
Class Label: n
